target: Shiga toxin 2 (Escherichia coli O157:H7) (UniProt P09385+P09386); assay: E. coli 0.157:H7 Shiga Toxin SOP - stx2 screening assay; format: functional; parameters: scale not given: direction of the effect not stated beside the values; settings: 30 µM
With a cut-off of -10%, any Percent Effect strictly below it is called TRUE; any Percent Effect meeting it or above is called FALSE.

[[record]]
molecule = "O=C(c1ccc(F)c(Cl)c1)N1C[C@@H]2CC[C@H](C1)N(Cc1ccccc1)C2"
subject_of_test = "Shiga toxin 2 (Escherichia coli O157:H7) (UniProt P09385+P09386)"
classification = "TRUE"

[[record]]
molecule = "Cc1cnc(CN(C)C2CCN(CC(=O)Nc3nncs3)C2)o1 (stereo not drawn)"
subject_of_test = "Shiga toxin 2 (Escherichia coli O157:H7) (UniProt P09385+P09386)"
classification = "TRUE"

[[record]]
molecule = "CC(=O)c1c(F)cccc1N1CCC(Cc2cccnc2)CC1"
subject_of_test = "Shiga toxin 2 (Escherichia coli O157:H7) (UniProt P09385+P09386)"
classification = "TRUE"

[[record]]
molecule = "N#CCCN(C(=O)CN1CCCC1C1CCCCC1)c1ccccc1 (stereo not drawn)"
subject_of_test = "Shiga toxin 2 (Escherichia coli O157:H7) (UniProt P09385+P09386)"
classification = "TRUE"

[[record]]
molecule = "Cc1cnn(CC(C)NCc2ccc(S(C)(=O)=O)cc2)c1 (stereo not drawn)"
subject_of_test = "Shiga toxin 2 (Escherichia coli O157:H7) (UniProt P09385+P09386)"
classification = "TRUE"

[[record]]
molecule = "Cc1nc(N2CCN(C)CC2)ncc1C(=O)N1CC(C)(C)C(C)(O)C1 (stereo not drawn)"
subject_of_test = "Shiga toxin 2 (Escherichia coli O157:H7) (UniProt P09385+P09386)"
classification = "TRUE"

[[record]]
molecule = "CCOCC1CN(C(=O)c2cscn2)Cc2nnn(CC3CC3)c21 (stereo not drawn)"
subject_of_test = "Shiga toxin 2 (Escherichia coli O157:H7) (UniProt P09385+P09386)"
classification = "FALSE"

[[record]]
molecule = "COC(=O)c1cccn1C1CCN(Cc2ccccc2)CC1"
subject_of_test = "Shiga toxin 2 (Escherichia coli O157:H7) (UniProt P09385+P09386)"
classification = "FALSE"

[[record]]
molecule = "CN(C)CC(=O)N1Cc2nc(C(=O)NCc3ccncc3)oc2C1"
subject_of_test = "Shiga toxin 2 (Escherichia coli O157:H7) (UniProt P09385+P09386)"
classification = "TRUE"

[[record]]
molecule = "Cc1nn(C)c(C)c1C1CCCN1Cc1nc(-c2ccco2)no1 (stereo not drawn)"
subject_of_test = "Shiga toxin 2 (Escherichia coli O157:H7) (UniProt P09385+P09386)"
classification = "TRUE"

[[record]]
molecule = "Cc1cnc(C(=O)N2C[C@@H]3CN(CC4CCCC4)CCO[C@@H]3C2)cn1"
subject_of_test = "Shiga toxin 2 (Escherichia coli O157:H7) (UniProt P09385+P09386)"
classification = "TRUE"

[[record]]
molecule = "CCc1n[nH]c(C2CN(C(=O)c3cnc(C)s3)CCO2)n1 (stereo not drawn)"
subject_of_test = "Shiga toxin 2 (Escherichia coli O157:H7) (UniProt P09385+P09386)"
classification = "FALSE"

[[record]]
molecule = "FC(F)(F)c1nc(NC2CCCC2)c2ccccc2n1"
subject_of_test = "Shiga toxin 2 (Escherichia coli O157:H7) (UniProt P09385+P09386)"
classification = "FALSE"

[[record]]
molecule = "O=C(NCCc1c[nH]cn1)c1ccc2c(c1)C(=O)N(C1CC1)C2=O"
subject_of_test = "Shiga toxin 2 (Escherichia coli O157:H7) (UniProt P09385+P09386)"
classification = "TRUE"

[[record]]
molecule = "CC(Cn1cccn1)NC(=O)CCc1ccc(S(N)(=O)=O)cc1 (stereo not drawn)"
subject_of_test = "Shiga toxin 2 (Escherichia coli O157:H7) (UniProt P09385+P09386)"
classification = "FALSE"

[[record]]
molecule = "CCC1CCCCN1C(=O)c1ccc2[nH]nnc2c1 (stereo not drawn)"
subject_of_test = "Shiga toxin 2 (Escherichia coli O157:H7) (UniProt P09385+P09386)"
classification = "FALSE"

[[record]]
molecule = "Oc1nc(N2CCOCC2)nc2c1CCN(Cc1cccnc1)CC2"
subject_of_test = "Shiga toxin 2 (Escherichia coli O157:H7) (UniProt P09385+P09386)"
classification = "TRUE"

[[record]]
molecule = "O=C(N1CCCC1)N1Cc2nccn2CC(CN2CCCC2)C1 (stereo not drawn)"
subject_of_test = "Shiga toxin 2 (Escherichia coli O157:H7) (UniProt P09385+P09386)"
classification = "FALSE"

[[record]]
molecule = "COc1ccc(CN2C[C@@H]3COC[C@]3(CN(C)C)C2)cc1"
subject_of_test = "Shiga toxin 2 (Escherichia coli O157:H7) (UniProt P09385+P09386)"
classification = "FALSE"

[[record]]
molecule = "CC(O)CN(CC(=O)NC(=O)NC1CC1)c1ccccc1 (stereo not drawn)"
subject_of_test = "Shiga toxin 2 (Escherichia coli O157:H7) (UniProt P09385+P09386)"
classification = "FALSE"

[[record]]
molecule = "Cc1ccc(C(=O)NCCNc2ncccc2C#N)c(=O)[nH]1"
subject_of_test = "Shiga toxin 2 (Escherichia coli O157:H7) (UniProt P09385+P09386)"
classification = "TRUE"

[[record]]
molecule = "O=C(Nc1cnn(CCN2CCOCC2)c1)c1ccccc1O"
subject_of_test = "Shiga toxin 2 (Escherichia coli O157:H7) (UniProt P09385+P09386)"
classification = "TRUE"

[[record]]
molecule = "c1cc(COC[C@@H]2CCC[C@@]23CNCCO3)ccn1"
subject_of_test = "Shiga toxin 2 (Escherichia coli O157:H7) (UniProt P09385+P09386)"
classification = "TRUE"

[[record]]
molecule = "CN(Cc1ccccc1)CC(O)Cn1cnc2c(cnn2C)c1=O (stereo not drawn)"
subject_of_test = "Shiga toxin 2 (Escherichia coli O157:H7) (UniProt P09385+P09386)"
classification = "FALSE"

[[record]]
molecule = "COc1ccc(C2CCCN2C(=O)CCNc2ncccn2)cc1 (stereo not drawn)"
subject_of_test = "Shiga toxin 2 (Escherichia coli O157:H7) (UniProt P09385+P09386)"
classification = "TRUE"

[[record]]
molecule = "C[C@@H]1CN(C(=O)c2ccc(C#N)nc2)CC[C@@]1(O)C1CCOCC1"
subject_of_test = "Shiga toxin 2 (Escherichia coli O157:H7) (UniProt P09385+P09386)"
classification = "FALSE"

[[record]]
molecule = "Cc1nn(C)c2cn(C(C)C(=O)NCc3cccnc3)nc12 (stereo not drawn)"
subject_of_test = "Shiga toxin 2 (Escherichia coli O157:H7) (UniProt P09385+P09386)"
classification = "TRUE"

[[record]]
molecule = "CC(Cn1cccn1)NCc1csc(-c2ccccc2F)n1 (stereo not drawn)"
subject_of_test = "Shiga toxin 2 (Escherichia coli O157:H7) (UniProt P09385+P09386)"
classification = "FALSE"

[[record]]
molecule = "COCC(=O)NCc1cc(=O)n2c(n1)CN(CC1CCOC1)CCC2 (stereo not drawn)"
subject_of_test = "Shiga toxin 2 (Escherichia coli O157:H7) (UniProt P09385+P09386)"
classification = "FALSE"

[[record]]
molecule = "CCN1CC(C(=O)NC(C)(C)CNC(=O)OC(C)(C)C)CC1=O (stereo not drawn)"
subject_of_test = "Shiga toxin 2 (Escherichia coli O157:H7) (UniProt P09385+P09386)"
classification = "FALSE"

[[record]]
molecule = "Cc1ccccc1-c1cc(NC(=O)CC(C)C)n(CCO)n1"
subject_of_test = "Shiga toxin 2 (Escherichia coli O157:H7) (UniProt P09385+P09386)"
classification = "FALSE"

[[record]]
molecule = "Cc1cc(NC(=O)CN2CCCC2c2noc(C3CC3)n2)no1 (stereo not drawn)"
subject_of_test = "Shiga toxin 2 (Escherichia coli O157:H7) (UniProt P09385+P09386)"
classification = "TRUE"

[[record]]
molecule = "Cn1cc(C2CCCN2C(=O)CCCOc2ccc(F)cc2F)cn1 (stereo not drawn)"
subject_of_test = "Shiga toxin 2 (Escherichia coli O157:H7) (UniProt P09385+P09386)"
classification = "FALSE"

[[record]]
molecule = "COC(=O)CCC(=O)N1CCC2(CN(Cc3cccc(F)c3)C2)C1"
subject_of_test = "Shiga toxin 2 (Escherichia coli O157:H7) (UniProt P09385+P09386)"
classification = "FALSE"

[[record]]
molecule = "CC(CCc1ccccc1)NC(=O)Nc1cnn(CC(N)=O)c1 (stereo not drawn)"
subject_of_test = "Shiga toxin 2 (Escherichia coli O157:H7) (UniProt P09385+P09386)"
classification = "TRUE"

[[record]]
molecule = "CC(NCc1ccncc1)c1cc(F)ccc1N1CCN(C)CC1 (stereo not drawn)"
subject_of_test = "Shiga toxin 2 (Escherichia coli O157:H7) (UniProt P09385+P09386)"
classification = "FALSE"

[[record]]
molecule = "O=C(NCc1cc[nH]n1)NCC(c1ccc(F)cc1)N1CCOCC1 (stereo not drawn)"
subject_of_test = "Shiga toxin 2 (Escherichia coli O157:H7) (UniProt P09385+P09386)"
classification = "TRUE"

[[record]]
molecule = "Cc1cccnc1C(=O)N1CCCCC1c1[nH]ncc1S(C)(=O)=O (stereo not drawn)"
subject_of_test = "Shiga toxin 2 (Escherichia coli O157:H7) (UniProt P09385+P09386)"
classification = "FALSE"

[[record]]
molecule = "CS(=O)(=O)CCC(=O)NC1(c2cccc(Br)c2)CC1"
subject_of_test = "Shiga toxin 2 (Escherichia coli O157:H7) (UniProt P09385+P09386)"
classification = "FALSE"

[[record]]
molecule = "CN1CCN(Cc2ccoc2)Cc2cccnc21"
subject_of_test = "Shiga toxin 2 (Escherichia coli O157:H7) (UniProt P09385+P09386)"
classification = "FALSE"

[[record]]
molecule = "Cc1c(C)n(-c2ccccn2)c2nc3c(c(N)c12)CCCC3"
subject_of_test = "Shiga toxin 2 (Escherichia coli O157:H7) (UniProt P09385+P09386)"
classification = "TRUE"

[[record]]
molecule = "CN(C)c1ccc(C(=O)NCC2(O)CCOCC2)cc1"
subject_of_test = "Shiga toxin 2 (Escherichia coli O157:H7) (UniProt P09385+P09386)"
classification = "TRUE"

[[record]]
molecule = "O=C(NCc1ccccc1CN1CCC(O)CC1)Nc1ccncc1"
subject_of_test = "Shiga toxin 2 (Escherichia coli O157:H7) (UniProt P09385+P09386)"
classification = "TRUE"

[[record]]
molecule = "O=C(NCCc1ccccc1)C1CCC(Cn2cnnn2)CC1 (stereo not drawn)"
subject_of_test = "Shiga toxin 2 (Escherichia coli O157:H7) (UniProt P09385+P09386)"
classification = "TRUE"

[[record]]
molecule = "Cc1nccn1C1CCCN(C(=O)c2ccc(N3CCCC3)nn2)C1 (stereo not drawn)"
subject_of_test = "Shiga toxin 2 (Escherichia coli O157:H7) (UniProt P09385+P09386)"
classification = "FALSE"

[[record]]
molecule = "O=C(O)CCc1cc2n(n1)CCCN(C(=O)c1ccc3cc[nH]c3c1)C2"
subject_of_test = "Shiga toxin 2 (Escherichia coli O157:H7) (UniProt P09385+P09386)"
classification = "FALSE"

